EXPERIMENTAL TARGET: human 5-hydroxytryptamine2C (h5HT2C) receptor (Homo sapiens)
Construct: expressed in transfected cells; host or cells: CHO (Chinese Hamster Ovary) cells; membrane preparation
Sequence (P28335 33-458): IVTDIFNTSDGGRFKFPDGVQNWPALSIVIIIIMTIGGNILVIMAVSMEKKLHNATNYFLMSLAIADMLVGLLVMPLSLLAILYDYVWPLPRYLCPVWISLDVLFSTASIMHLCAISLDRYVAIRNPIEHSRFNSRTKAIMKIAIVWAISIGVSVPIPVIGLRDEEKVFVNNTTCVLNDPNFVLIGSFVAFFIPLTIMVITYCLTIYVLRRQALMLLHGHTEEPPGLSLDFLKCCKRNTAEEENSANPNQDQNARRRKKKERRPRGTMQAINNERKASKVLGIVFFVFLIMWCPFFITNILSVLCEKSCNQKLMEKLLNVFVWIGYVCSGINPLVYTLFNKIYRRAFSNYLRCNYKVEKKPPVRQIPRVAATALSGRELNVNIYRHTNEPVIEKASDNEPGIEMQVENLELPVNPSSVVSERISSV
PROCEDURE SUMMARY: 5HT2C Receptor Binding Test Procedure ([125I] DOI displacement, membranes of transfected CHO cells)
APPLIED CONDITIONS: reference compounds; [125I] DOI binding, h5HT2C CHO membranes; read-out: Ki value and 95% confidence interval
MEASURED ATTRIBUTE: Ki
Don't forget the unit after the number, please.

Item under review: CSc1ccc2c(c1)C(N1CCN(C)CC1)Cc1ccccc1S2 (stereo not shown) [Methiothepin] . Reported Ki?
4.6 nM
